# Subject Of Test: Cv5-HT2α (Calliphora vicina)
# Assay: Ca2+ signals (Fluo-4) in Cv5-HT2α-expressing HEK 293 cells, agonists
# Type: cell-based
# Study Conditions: Cv5-HT2α log EC50, Ca2+-dependent Fluo-4 signal, Cv5-HT2α-expressing HEK 293 cells
pEC50: −log10 of the molar value.

| Compound | pEC50 |
| --- | --- |
| CCCN(CCC)C1CCc2cccc(O)c2C1 (racemic) | 4.21 |
| NCCc1c[nH]c2ccc(O)cc12 [5-HT, 5-hydroxytryptamine] | 7.62 |
| COc1ccc2[nH]cc(CCN)c2c1 | 7.17 |

###

# Subject Of Test: Cv5-HT2α (Calliphora vicina, UniProt I7JA47)
# Sequence (I7JA47 entry or part of it): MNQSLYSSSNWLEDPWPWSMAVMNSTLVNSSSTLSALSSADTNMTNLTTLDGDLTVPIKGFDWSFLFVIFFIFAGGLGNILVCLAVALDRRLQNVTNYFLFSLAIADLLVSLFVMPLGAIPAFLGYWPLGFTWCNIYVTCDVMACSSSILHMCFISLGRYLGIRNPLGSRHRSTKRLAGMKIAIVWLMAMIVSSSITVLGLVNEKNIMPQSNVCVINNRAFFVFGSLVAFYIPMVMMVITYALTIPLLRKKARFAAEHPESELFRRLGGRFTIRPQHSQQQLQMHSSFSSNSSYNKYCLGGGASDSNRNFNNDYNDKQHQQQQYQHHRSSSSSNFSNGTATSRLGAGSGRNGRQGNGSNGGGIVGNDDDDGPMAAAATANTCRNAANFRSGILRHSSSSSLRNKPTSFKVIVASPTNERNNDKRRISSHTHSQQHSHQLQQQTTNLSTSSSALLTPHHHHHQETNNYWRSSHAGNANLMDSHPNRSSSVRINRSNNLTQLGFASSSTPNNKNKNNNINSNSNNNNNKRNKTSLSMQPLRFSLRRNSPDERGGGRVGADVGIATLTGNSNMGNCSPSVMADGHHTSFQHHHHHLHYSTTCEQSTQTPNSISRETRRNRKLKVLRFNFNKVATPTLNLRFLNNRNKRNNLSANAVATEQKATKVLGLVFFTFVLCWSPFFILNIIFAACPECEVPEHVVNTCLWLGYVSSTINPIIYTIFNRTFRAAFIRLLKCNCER
# Assay: Inhibition of 5-HT-induced Ca2+ signals in Cv5-HT2α-expressing cells
# Type: cell-based
# Study Conditions: in the presence of 100 nM 5-HT; read-out: Cv5-HT2α IC50
pIC50: −log10 of the molar value. Counter-ions that a name gives are not always drawn.
Measured pIC50 values are reported for all entries that follow.

| Compound | pIC50 |
| --- | --- |
| CC1CCN(CC[C@H]2CCCN2S(=O)(=O)c2cccc(O)c2)CC1 | 4.28 |
| CSc1ccc2c(c1)C(N1CCN(C)CC1)Cc1ccccc1S2 (centres unmarked) [methiothepin] | 5.92 |
| Cc1ccc(N(CC2=NCCN2)c2cccc(O)c2)cc1 | 3.70 |
| CN(C)CCCSc1ccccc1NC(=O)/C=C/c1ccccc1 [cinanserin, cinanserin hydrochloride] | 4.52 |
| O=C(c1ccc(F)cc1)C1CCN(CCn2c(=O)[nH]c3ccccc3c2=O)CC1 | 4.85 |

###

# Subject Of Test: Cv5-HT7 (Calliphora vicina, UniProt I7IA71)
# Sequence (I7IA71 entry or part of it): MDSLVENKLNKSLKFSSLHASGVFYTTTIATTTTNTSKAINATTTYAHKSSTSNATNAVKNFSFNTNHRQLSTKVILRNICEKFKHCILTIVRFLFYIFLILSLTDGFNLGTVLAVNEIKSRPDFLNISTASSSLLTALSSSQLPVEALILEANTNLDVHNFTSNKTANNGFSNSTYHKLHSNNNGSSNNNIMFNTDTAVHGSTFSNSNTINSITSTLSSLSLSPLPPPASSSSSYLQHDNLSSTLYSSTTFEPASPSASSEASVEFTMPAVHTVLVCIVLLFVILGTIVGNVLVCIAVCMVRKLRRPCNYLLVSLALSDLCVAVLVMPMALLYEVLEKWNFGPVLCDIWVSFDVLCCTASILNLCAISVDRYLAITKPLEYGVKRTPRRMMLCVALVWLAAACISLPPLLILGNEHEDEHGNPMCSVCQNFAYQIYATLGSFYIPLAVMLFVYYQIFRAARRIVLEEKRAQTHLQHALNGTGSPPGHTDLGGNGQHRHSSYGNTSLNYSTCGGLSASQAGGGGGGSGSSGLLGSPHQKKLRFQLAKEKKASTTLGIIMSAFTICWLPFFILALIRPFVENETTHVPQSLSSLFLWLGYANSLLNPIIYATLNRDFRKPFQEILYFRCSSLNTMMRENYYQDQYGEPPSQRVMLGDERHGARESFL
# Assay: Inhibition of 5-HT-induced Fluo-4 signals in Cv5-HT7-expressing cells
# Assay type: cell-based
# Study Conditions: in the presence of 6 nM 5-HT; read-out: Cv5-HT7 IC50
Structures can show the parent of a compound that is named as a salt.
This section presents molecules with their documented IC50 values.
Parameter Measured: IC50 (nM)

| Molecule | Test Value |
| --- | --- |
| CN(C)CCCSc1ccccc1NC(=O)/C=C/c1ccccc1 [cinanserin, cinanserin hydrochloride] | 400 |
| O=C(CCCN1CCC2(CC1)C(=O)NCN2c1ccccc1)c1ccc(F)cc1 [spiperone] | 280 |
| CC1CCN(CC[C@H]2CCCN2S(=O)(=O)c2cccc(O)c2)CC1 [SB-269970] | 9 |
